# credit: ChEMBL document CHEMBL3751772

target: ATPase family AAA domain-containing protein 2 (Homo sapiens, UniProt Q6PL18); assay: Binding affinity to recombinant human his-tagged ATAD2 expressed in Escherichia coli BL21(DE3) cells by isothermal titration calorimetry
Sequence (Q6PL18 whole entry, the tested form may be a part): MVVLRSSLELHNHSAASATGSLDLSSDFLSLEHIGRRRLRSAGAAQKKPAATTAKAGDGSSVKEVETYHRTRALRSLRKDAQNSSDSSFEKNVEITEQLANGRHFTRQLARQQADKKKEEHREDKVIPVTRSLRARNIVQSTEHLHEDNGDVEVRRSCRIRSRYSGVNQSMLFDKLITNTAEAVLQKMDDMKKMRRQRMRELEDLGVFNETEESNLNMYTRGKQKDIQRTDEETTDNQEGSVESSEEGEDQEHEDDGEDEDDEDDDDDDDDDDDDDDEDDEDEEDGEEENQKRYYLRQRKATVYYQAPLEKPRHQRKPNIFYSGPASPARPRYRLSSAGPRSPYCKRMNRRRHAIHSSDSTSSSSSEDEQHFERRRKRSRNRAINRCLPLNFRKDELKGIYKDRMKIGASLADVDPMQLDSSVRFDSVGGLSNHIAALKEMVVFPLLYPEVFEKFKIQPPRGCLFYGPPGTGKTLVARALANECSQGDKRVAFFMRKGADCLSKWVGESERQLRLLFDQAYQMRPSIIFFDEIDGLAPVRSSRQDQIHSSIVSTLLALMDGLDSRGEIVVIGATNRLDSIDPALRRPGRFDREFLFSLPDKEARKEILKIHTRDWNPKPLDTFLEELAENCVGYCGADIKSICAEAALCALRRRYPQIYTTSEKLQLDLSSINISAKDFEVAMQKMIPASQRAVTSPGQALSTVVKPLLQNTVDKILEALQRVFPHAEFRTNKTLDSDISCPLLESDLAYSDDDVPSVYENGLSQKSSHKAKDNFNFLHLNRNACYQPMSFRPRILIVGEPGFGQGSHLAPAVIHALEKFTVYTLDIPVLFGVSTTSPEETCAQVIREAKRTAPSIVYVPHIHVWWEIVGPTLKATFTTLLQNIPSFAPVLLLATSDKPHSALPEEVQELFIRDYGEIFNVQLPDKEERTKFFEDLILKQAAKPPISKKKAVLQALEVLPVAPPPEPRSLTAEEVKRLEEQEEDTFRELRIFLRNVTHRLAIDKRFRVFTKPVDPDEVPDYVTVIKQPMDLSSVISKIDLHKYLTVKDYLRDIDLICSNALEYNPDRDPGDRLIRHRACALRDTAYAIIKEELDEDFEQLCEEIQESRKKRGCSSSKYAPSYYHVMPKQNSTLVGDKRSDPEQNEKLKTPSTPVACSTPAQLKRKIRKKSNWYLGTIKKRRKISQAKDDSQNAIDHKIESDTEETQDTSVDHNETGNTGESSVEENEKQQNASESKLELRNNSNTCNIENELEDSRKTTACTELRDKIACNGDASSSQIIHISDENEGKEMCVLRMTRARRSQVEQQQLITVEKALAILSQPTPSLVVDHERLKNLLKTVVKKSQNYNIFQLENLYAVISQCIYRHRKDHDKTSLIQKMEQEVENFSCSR
quantity-kind: Kd (µM)
One number for each entry, in µM.

Qu. What Kd value was documented for this compound, COC(=O)c1cc(N)cc(-c2c(C)noc2C)c1 ?
Ans. 200

====

target: Bromodomain-containing protein 4 (Homo sapiens, UniProt O60885); assay: Inhibition of 5F-Trp-tagged BRD4 bromodomain-1 (unknown origin) expressed in Escherichia coli by isothermal titration calorimetry
quantity-kind: pKd
One number for each entry, as −log10 of the molar value.

Qu. Fill blank: measured pKd of the compound CC(=O)Nc1ccc(O)cc1 is ____.
Ans. 3.60
